Molecular target: Urease subunit alpha/Urease subunit beta (Helicobacter pylori (strain ATCC 700392 / 26695) (Campylobacterpylori)) (UniProt P69996+P14916)
Sequence (P14916 whole entry, looked up): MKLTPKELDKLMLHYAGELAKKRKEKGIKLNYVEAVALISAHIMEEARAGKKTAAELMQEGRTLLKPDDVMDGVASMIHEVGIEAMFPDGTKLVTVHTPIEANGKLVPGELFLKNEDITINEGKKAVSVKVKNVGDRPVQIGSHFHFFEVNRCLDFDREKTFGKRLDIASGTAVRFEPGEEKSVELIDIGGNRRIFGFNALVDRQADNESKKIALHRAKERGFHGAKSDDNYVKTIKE
Sequence (P69996 whole entry, looked up): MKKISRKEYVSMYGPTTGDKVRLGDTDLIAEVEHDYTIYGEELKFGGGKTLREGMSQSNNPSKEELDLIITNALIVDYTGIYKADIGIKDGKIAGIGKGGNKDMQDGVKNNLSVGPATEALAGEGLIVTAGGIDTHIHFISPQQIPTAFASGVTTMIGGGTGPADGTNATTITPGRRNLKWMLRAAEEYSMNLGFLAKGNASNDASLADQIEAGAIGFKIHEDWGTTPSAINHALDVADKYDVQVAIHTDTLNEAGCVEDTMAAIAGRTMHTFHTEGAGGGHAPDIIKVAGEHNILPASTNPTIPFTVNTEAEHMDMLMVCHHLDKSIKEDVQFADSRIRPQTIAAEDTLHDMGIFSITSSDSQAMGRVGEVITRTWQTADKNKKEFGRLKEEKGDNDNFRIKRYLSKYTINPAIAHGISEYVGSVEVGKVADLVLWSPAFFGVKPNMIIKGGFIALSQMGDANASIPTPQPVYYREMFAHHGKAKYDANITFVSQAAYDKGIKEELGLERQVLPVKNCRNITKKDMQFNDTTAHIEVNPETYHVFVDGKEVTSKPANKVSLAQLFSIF
Experiment: Inhibition of Helicobacter pylori ATCC 43504 urease assessed as ammonia production at 1 mM after 3 hrs by indophenol method
The source made the active and inactive calls. The rule behind the calls is not given here.
Observation type: inhibition

> print(dat)
                                smiles.data  reported
1  Cc1ncc([N+](=O)[O-])n1CCOc1c(Cl)cc(Cl)cc1C(=O)O     56.8%
2  Cc1ncc([N+](=O)[O-])n1CCOC(=O)c1cc(Cl)ccc1OCCn1c([N+](=O)[O-])cnc1C     95.3%
3  Cc1cccc(C(=O)OCCn2c([N+](=O)[O-])cnc2C)c1OCCn1c([N+](=O)[O-])cnc1C     42.1%
4  Cc1ncc([N+](=O)[O-])n1CCOc1c(I)cc(I)cc1C(=O)O     53.9%
5  Cc1ncc([N+](=O)[O-])n1CCOc1cc(N)ccc1C(=O)O     38.3%

[Q] Indicate its recorded inhibition; the molecule in question is Cc1ccc(C(=O)O)c(OCCn2c([N+](=O)[O-])cnc2C)c1
[A] inactive

[Q] Indicate its recorded inhibition; the molecule in question is Cc1ncc([N+](=O)[O-])n1CCOC(=O)c1cc(Br)ccc1OCCn1c([N+](=O)[O-])cnc1C
[A] 93.9%

[Q] Indicate its recorded inhibition; the molecule in question is Cc1ccc(S(=O)(=O)OCCn2c([N+](=O)[O-])cnc2C)cc1
[A] 78.1%

[Q] Indicate its recorded inhibition; the molecule in question is Cc1ncc([N+](=O)[O-])n1CCOC(=O)c1ccc(Cl)cc1OCCn1c([N+](=O)[O-])cnc1C
[A] 82.2%
